# assay-method-text: S16 Schwann cell viability assay (CellTiter-Glo assay) (AID 624031);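 further: native untransfected S16 rat Schwann cells; cellular ATP luminescence as a viability measure; nearly all actives have a fitted effect of over 70% in size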
# condition-summary: S16 rat Schwann cells viability, 24 h; series mostly up to 57.5 µM
Results filed as inconclusive are left out. Calls of active or inactive are those of the source. The call rests on the fitted dose curve; in most records, active means well fitted cell-killing curve with a large enough effect; inconclusive means small, poorly fitted or top-dose-only effect, or effect the other way; inactive means flat fitted curve, though single readings scatter.
quantity-kind: outcome

compound	quantity-kind	result
Cc1ccc(C(C)(C)c2ccc(C)cc2)cc1	outcome	inactive
Cc1cc(=O)c(C(=O)N[C@@H](C(=O)N[C@@H]2C(=O)N3C(C(=O)O)=C(CSc4nnnn4C)CS[C@H]23)c2ccc(O)cc2)c[nH]1	outcome	inactive
O=C(NNCS(=O)(=O)O)c1ccncc1	outcome	inactive
COC(=O)C(CN)c1c[nH]c2ccc(OC)cc12 (stereo not drawn)	outcome	inactive
Nc1nc(=O)n([C@@H]2CS[C@H](CO)O2)cc1F	outcome	inactive
O=C(O)[C@H]1C(=CCO)O[C@H]2CC(=O)N12	outcome	inactive
CCCOc1cc(N)ccc1C(=O)OCCN(CC)CC	outcome	inactive

# next compound below
// recorded outcome for "O=C1[O][Bi][O]c2ccccc21" : inactive
